Target: full-length beta-Catenin (Uniprot ID P35222) (Homo sapiens)
Construct: 10 nM full-length beta-Catenin (Uniprot ID P35222)
Sequence (P35222 1-781): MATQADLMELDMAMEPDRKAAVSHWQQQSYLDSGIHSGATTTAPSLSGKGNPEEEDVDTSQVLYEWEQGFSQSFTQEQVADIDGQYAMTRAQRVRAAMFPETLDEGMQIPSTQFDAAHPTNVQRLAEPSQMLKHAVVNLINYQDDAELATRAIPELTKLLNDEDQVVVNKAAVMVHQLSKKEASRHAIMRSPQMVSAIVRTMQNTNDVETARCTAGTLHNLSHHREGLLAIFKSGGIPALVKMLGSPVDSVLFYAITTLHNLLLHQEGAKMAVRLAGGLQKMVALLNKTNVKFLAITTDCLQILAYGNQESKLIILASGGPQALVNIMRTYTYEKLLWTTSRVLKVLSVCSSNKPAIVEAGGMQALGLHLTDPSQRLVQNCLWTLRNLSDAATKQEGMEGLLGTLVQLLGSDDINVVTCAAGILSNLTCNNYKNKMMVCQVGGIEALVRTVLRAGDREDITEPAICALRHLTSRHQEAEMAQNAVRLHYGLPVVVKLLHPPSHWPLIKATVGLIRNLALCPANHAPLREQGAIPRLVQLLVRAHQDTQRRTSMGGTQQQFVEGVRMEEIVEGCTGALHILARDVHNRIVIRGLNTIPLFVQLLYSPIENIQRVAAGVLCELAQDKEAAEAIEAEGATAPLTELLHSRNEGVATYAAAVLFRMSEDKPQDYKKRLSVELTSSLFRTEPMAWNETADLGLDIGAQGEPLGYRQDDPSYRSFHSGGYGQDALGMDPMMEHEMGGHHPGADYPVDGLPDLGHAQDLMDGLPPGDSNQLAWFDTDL
Experiment: Fluorescence polarization IC50 (beta-catenin / 5FAM-TCF4 10-53 competition)
Type: binding
Details: read-out: FP EC50
QUANTITY_MEASURED: IC50 (nM)
Reply numerically in nM, unit not repeated.

[[record]]
compound = "CC[C@@H]1NC(=O)[C@H](CC(=O)O)NC(=O)[C@]2(CC=CCCCC3(CCCC=CCCCCCC[C@@](C)(C(=O)N[C@@H](Cc4ccccc4)C(=O)N[C@@H](Cc4csc5ccccc45)C(=O)N[C@@H](CCC(N)=O)C(N)=O)NC(=O)[C@H](CCC(N)=O)NC(=O)[C@H](Cc4ccccc4)NC(=O)[C@H](C)NC(=O)[C@H](C)NC(=O)[C@H](CCC(=O)O)NC(=O)[C@H](CC(=O)O)NC3=O)NC1=O)CCCN2C(C)=O (stereo partly shown) [I-568]"
value = 73


So what does the record say about IC50 for CC[C@H](C)[C@@H]1NC(=O)[C@H](CC(=O)O)NC(=O)[C@]2(CC=CCCCC3(CCCC=CCCCCCC[C@@](C)(C(=O)N[C@@H](Cc4ccsc4)C(=O)N[C@@H](Cc4csc5ccccc45)C(N)=O)NC(=O)[C@H](CC(N)=O)NC(=O)[C@H](Cc4ccccc4)NC(=O)[C@H](C)NC(=O)[C@H](C)NC(=O)[C@H](CCC(=O)O)NC(=O)[C@H](CC(=O)O)NC3=O)NC1=O)CCCN2C(C)=O (stereo partly shown) [I-720] ?
75

So what does the record say about IC50 for CC(=O)N1CCC[C@]12CC=CCCCC1(CCCC=CCCCCCC[C@@](C)(C(=O)N[C@@H](Cc3cccc(F)c3)C(=O)N[C@@H](Cc3c[nH]c4ccccc34)C(=O)N[C@@H](CCC(N)=O)C(N)=O)NC(=O)[C@H](CCC(N)=O)NC(=O)[C@H](Cc3ccsc3)NC(=O)[C@H](C)NC(=O)[C@H](C)NC(=O)[C@H](CCC(=O)O)NC(=O)[C@H](CC(=O)O)NC1=O)NC(=O)[C@H](C)NC(=O)[C@H](CC(=O)O)NC2=O (stereo partly shown) ?
1660

So what does the record say about IC50 for CC(=O)N1CCC[C@]12CC=CCCCC1(CCCC=CCCCCCC[C@@](C)(C(=O)N[C@@H](Cc3ccsc3)C(=O)N[C@@H](Cc3csc4ccccc34)C(=O)N[C@@H](CCC(N)=O)C(N)=O)NC(=O)[C@H](CC(N)=O)NC(=O)[C@H](Cc3ccccc3)NC(=O)[C@H](C)NC(=O)[C@H](C)NC(=O)[C@H](CCC(=O)O)NC(=O)[C@H](CC(=O)O)NC1=O)NC(=O)[C@H](C)NC(=O)[C@H](CC(=O)O)NC2=O (stereo partly shown) [I-519] ?
33

So what does the record say about IC50 for CC[C@H](C)[C@@H]1NC(=O)[C@H](CC(=O)O)NC(=O)[C@]2(CC=CCCCC3(CCCC=CCCCCCC[C@@](C)(C(=O)N[C@@H](Cc4ccccc4)C(=O)N[C@@H](Cc4csc5ccccc45)C(=O)N[C@@H](Cc4c[nH]cn4)C(N)=O)NC(=O)[C@H](CCC(N)=O)NC(=O)[C@H](Cc4ccccc4)NC(=O)[C@H](C)NC(=O)[C@H](C)NC(=O)[C@H](CC(=O)O)NC(=O)[C@H](CC(=O)O)NC3=O)NC1=O)CCCN2C(C)=O (stereo partly shown) [I-580] ?
114

So what does the record say about IC50 for CC[C@H](C)[C@@H]1NC(=O)[C@H](CC(=O)O)NC(=O)[C@]2(CC=CCCCC3(CCCC=CCCCCCC[C@@](C)(C(=O)N[C@@H](Cc4ccccc4)C(=O)N[C@@H](Cc4csc5ccccc45)C(=O)N[C@@H](CCC(N)=O)C(N)=O)NC(=O)[C@H](CCC(N)=O)NC(=O)[C@H](Cc4ccccc4)NC(=O)[C@H](C)NC(=O)[C@H](C)NC(=O)[C@H](CN(CC(=O)O)CC(F)(F)F)NC(=O)[C@H](CC(=O)O)NC3=O)NC1=O)CCCN2C(C)=O (stereo partly shown) [I-610] ?
54
